Kindly state activity vs S. maltophilia for each of the entries shown.
tested on: S. maltophilia 51Cl; assay: Novispirins vs S. maltophilia (Table 5); format: cell-based, Stenotrophomonas maltophilia; parameters: unit not given here; details: LOW SALT CONDITIONS; strain 51Cl
Where no end group is shown, it is not given here.

Provide activity vs S. maltophilia, tested on S. maltophilia 51Cl, for KNLRRIGRKIIHIIKKYG [G7 Novispirin, K N L R R I G R K I I H I I K K Y G] .
0.54

Provide activity vs S. maltophilia, tested on S. maltophilia 51Cl, for GLLRRLRKKIGEIFKKYG [PGG, reference compound] .
1.31

Provide activity vs S. maltophilia, tested on S. maltophilia 51Cl, for KNLRRIIRKGIHIIKKYG-OH [G10 Novispirin, K N L R R I I R K G I H I I K K Y G] .
0.45

Provide activity vs S. maltophilia, tested on S. maltophilia 51Cl, for KNLRRITRKIIHIIKKYG [T7 Novispirin, K N L R R I T R K I I H I I K K Y G] .
0.88

====

Kindly state activity vs S. maltophilia for each of the entries shown.
system: S. maltophilia 36CN; test: Novispirins vs S. maltophilia (Table 5); assay type: cell-based, Stenotrophomonas maltophilia; set-up: unit not given here; conditions: LOW SALT CONDITIONS; strain 36CN
Where no end group is shown, it is not given here.
Write no unit; give the number alone.

Provide activity vs S. maltophilia, tested on S. maltophilia 36CN, for KNLRRITRKIIHIIKKYG [T7 Novispirin, K N L R R I T R K I I H I I K K Y G] .
0.21

Provide activity vs S. maltophilia, tested on S. maltophilia 36CN, for KNLRRIGRKIIHIIKKYG [G7 Novispirin, K N L R R I G R K I I H I I K K Y G] .
0.17

Provide activity vs S. maltophilia, tested on S. maltophilia 36CN, for KNLRRIIRKGIHIIKKYG-OH [G10 Novispirin, K N L R R I I R K G I H I I K K Y G] .
0.15

Provide activity vs S. maltophilia, tested on S. maltophilia 36CN, for GLLRRLRKKIGEIFKKYG [PGG, reference compound] .
1.10

====

tested on: S. maltophilia 18CP; test: Novispirins vs S. maltophilia (Table 5); type: cell-based, Stenotrophomonas maltophilia; set-up: unit not given here; details: LOW SALT CONDITIONS; strain 18CP
Where no end group is shown, it is not given here.
Kindly state activity vs S. maltophilia for each of the entries shown.
Write no unit; give the number alone.

Provide activity vs S. maltophilia, tested on S. maltophilia 18CP, for KNLRRIGRKIIHIIKKYG [G7 Novispirin, K N L R R I G R K I I H I I K K Y G] .
0.61

Provide activity vs S. maltophilia, tested on S. maltophilia 18CP, for KNLRRIIRKGIHIIKKYG-OH [G10 Novispirin, K N L R R I I R K G I H I I K K Y G] .
0.40

Provide activity vs S. maltophilia, tested on S. maltophilia 18CP, for GLLRRLRKKIGEIFKKYG [PGG, reference compound] .
0.86

Provide activity vs S. maltophilia, tested on S. maltophilia 18CP, for KNLRRITRKIIHIIKKYG [T7 Novispirin, K N L R R I T R K I I H I I K K Y G] .
0.74
